# Species: Rattus norvegicus
# protocol_details: Antiischemic potency by measurement of increase in time to contracture in globally ischemic isolated perfused rat hearts
# Format: functional
Reported EC25 values for a set of compounds
Give the quantity in nM, number only.

Suppose we examine the compound CC1(C)Oc2ccc(S(=O)(=O)N3CCOCC3)cc2[C@@H](/N=C(\NC#N)Nc2ccc(Cl)cc2)[C@@H]1O ; what EC25 value has been reported? 1000

Param item = COP(=O)(c1ccccc1)c1ccc2c(c1)[C@@H](/N=C(\NC#N)Nc1ccc(Cl)cc1)[C@H](O)C(C)(C)O2 (some centres not stated) ; retrieve measured EC25. 2400

Name the recorded EC25 for CC(C)(C)C(=O)c1ccc2c(c1)[C@@H](/N=C(\NC#N)Nc1ccc(Cl)cc1)[C@H](O)C(C)(C)O2 . 1800

###

# Organism: Rattus norvegicus
# protocol_details: Antiischemic potency by measurement of increase in time to contracture in globally ischemic isolated perfused rat hearts
# Assay type: functional
readout_type: EC25 (nM)
# value in nM; strip the unit string

Could you share which EC25 value was measured for CC1(C)Oc2ccc(C(=O)c3ccccc3)cc2[C@@H](/N=C(\NC#N)Nc2ccc(Cl)cc2)[C@@H]1O ? 900

Field request: EC25 | item: CC1(C)Oc2ccc(S(=O)(=O)N3CCC(Cc4ccccc4)CC3)cc2[C@@H](/N=C(\NC#N)Nc2ccc(Cl)cc2)[C@@H]1O 940

Any idea what EC25 was measured for CC1(C)Oc2ccc(S(=O)(=O)c3ccccc3)cc2[C@@H](/N=C(\NC#N)Nc2ccc(Cl)cc2)[C@@H]1O ? 800

###

Each item that follows carries a reported IC50.
# Species on record: Rattus norvegicus
# protocol_details: In vitro relaxation of rat aorta precontracted with methoxamine.
# Format: functional
Response body: numeric value in µM, unit text excluded.

> print(dat)
                                   compound  readout.type  unit.string  assay.result
1  CC1(C)Oc2ccc(S(=O)(=O)N3CCCCC3)cc2[C@@H](/N=C(\NC#N)Nc2ccc(Cl)cc2)[C@@H]1O          IC50           µM           1.9
2  CC(C)(C)C(=O)c1ccc2c(c1)[C@@H](/N=C(\NC#N)Nc1ccc(Cl)cc1)[C@H](O)C(C)(C)O2          IC50           µM           5.4
3  CC(C)CN(CC(C)C)S(=O)(=O)c1ccc2c(c1)[C@@H](/N=C(\NC#N)Nc1ccc(Cl)cc1)[C@H](O)C(C)(C)O2          IC50           µM           9.4
4  CC1(C)Oc2ccc(S(N)(=O)=O)cc2[C@@H](/N=C(\NC#N)Nc2ccc(Cl)cc2)[C@@H]1O          IC50           µM          41.3
5  COP(=O)(c1ccccc1)c1ccc2c(c1)[C@@H](/N=C(\NC#N)Nc1ccc(Cl)cc1)[C@H](O)C(C)(C)O2 (stereo partly specified)          IC50           µM          44.1
6  CC1(C)Oc2ccc(S(=O)(=O)c3ccccc3)cc2[C@@H](/N=C(\NC#N)Nc2ccc(Cl)cc2)[C@@H]1O          IC50           µM           0.5
7  CC1(C)Oc2ccc(S(=O)(=O)N3CCOCC3)cc2[C@@H](/N=C(\NC#N)Nc2ccc(Cl)cc2)[C@@H]1O          IC50           µM           3.1
8  CC1(C)Oc2ccc(S(=O)(=O)NC3CCCCC3)cc2[C@@H](/N=C(\NC#N)Nc2ccc(Cl)cc2)[C@@H]1O          IC50           µM          11.7

# query: IC50 of entry CC1(C)Oc2ccc(S(=O)(=O)Nc3ccccc3)cc2[C@@H](/N=C(\NC#N)Nc2ccc(Cl)cc2)[C@@H]1O 3.3

Item CC1CC(C)CN(S(=O)(=O)c2ccc3c(c2)[C@@H](/N=C(\NC#N)Nc2ccc(Cl)cc2)[C@H](O)C(C)(C)O3)C1 (stereo partly specified) has what recorded IC50? 32.1

Report IC50 for C=C(c1ccccc1)c1ccc2c(c1)[C@@H](/N=C(\NC#N)Nc1ccc(Cl)cc1)[C@H](O)C(C)(C)O2 please. 10.7

Field request: IC50 | item: CC1(C)Oc2ccc(C(=O)c3ccccc3)cc2[C@@H](/N=C(\NC#N)Nc2ccc(Cl)cc2)[C@@H]1O 7.1

What value of IC50 has been reported for the following compound? CC1(C)Oc2ccc(C(=O)Cc3ccccc3)cc2[C@@H](/N=C(\NC#N)Nc2ccc(Cl)cc2)[C@@H]1O 6.8

###

# Species on record: Rattus norvegicus
# protocol_details: In vitro relaxation of rat aorta precontracted with methoxamine.
# Type: functional
// values below are reported IC50
Field: numeric (nM). Do not append units.

Answered cases to consult:
> print(dat)
                                 mol.smiles  readout.type  unit.string  assay.result
1  C[C@@H]1CCC[C@H](C)N1S(=O)(=O)c1ccc2c(c1)[C@@H](/N=C(\NC#N)Nc1ccc(Cl)cc1)[C@H](O)C(C)(C)O2          IC50           nM           500
2  CC1(C)Oc2ccc(Cc3ccccc3)cc2[C@@H](/N=C(\NC#N)Nc2ccc(Cl)cc2)[C@@H]1O          IC50           nM         10000

# context switch: different compound, same IC50
Could you share which IC50 value was measured for CCN(CC)S(=O)(=O)c1ccc2c(c1)[C@@H](/N=C(\NC#N)Nc1ccc(Cl)cc1)[C@H](O)C(C)(C)O2 ? 1100

###

# Species: Rattus norvegicus
# protocol_details: Antiischemic potency by measurement of increase in time to contracture in globally ischemic isolated perfused rat hearts
# Type: functional
As shown below, each of these compounds has a reported log10(EC25) value.
Form field - Quantity: EC25; Unit: nM; Scale: log10

> print(dat)
                                   compound  readout.type  assay.result
1  CC1(C)Oc2ccc(S(=O)(=O)N3CCCC(Cc4ccccc4)C3)cc2[C@@H](/N=C(\NC#N)Nc2ccc(Cl)cc2)[C@@H]1O (stereo not given in full)   log10(EC25)          3.04
2  CCN(CC)S(=O)(=O)c1ccc2c(c1)[C@@H](/N=C(\NC#N)Nc1ccc(Cl)cc1)[C@H](O)C(C)(C)O2   log10(EC25)          2.48
3  CC1CCN(S(=O)(=O)c2ccc3c(c2)[C@@H](/N=C(\NC#N)Nc2ccc(Cl)cc2)[C@H](O)C(C)(C)O3)CC1   log10(EC25)          2.81
4  CC1(C)Oc2ccc(C#N)cc2[C@@H](N2CCCC2=O)[C@@H]1O   log10(EC25)          3.95
5  CCN(CC(F)(F)F)S(=O)(=O)c1ccc2c(c1)[C@@H](/N=C(\NC#N)Nc1ccc(Cl)cc1)[C@H](O)C(C)(C)O2   log10(EC25)          2.41
6  CC1(C)Oc2ccc(C(=O)Cc3ccccc3)cc2[C@@H](/N=C(\NC#N)Nc2ccc(Cl)cc2)[C@@H]1O   log10(EC25)          2.60
7  CC(C)CN(CC(C)C)S(=O)(=O)c1ccc2c(c1)[C@@H](/N=C(\NC#N)Nc1ccc(Cl)cc1)[C@H](O)C(C)(C)O2   log10(EC25)          1.60
8  CC(C)N(C(C)C)S(=O)(=O)c1ccc2c(c1)[C@@H](/N=C(\NC#N)Nc1ccc(Cl)cc1)[C@H](O)C(C)(C)O2   log10(EC25)          2.38

What does the record list as log10(EC25) for CC1(C)Oc2ccc(S(=O)(=O)N3CCCCCC3)cc2[C@@H](/N=C(\NC#N)Nc2ccc(Cl)cc2)[C@@H]1O ? 2.78

Any idea what its log10(EC25) is? The compound is CC1(C)Oc2ccc(S(=O)(=O)NC3CCCCC3)cc2[C@@H](/N=C(\NC#N)Nc2ccc(Cl)cc2)[C@@H]1O 3.34

Given the compound CC1(C)Oc2ccc(S(=O)(=O)Nc3ccccc3)cc2[C@@H](/N=C(\NC#N)Nc2ccc(Cl)cc2)[C@@H]1O , what is its reported log10(EC25)? 3.28

Dear colleague, I am looking for the recorded log10(EC25) of the following compound: CC1CC(C)CN(S(=O)(=O)c2ccc3c(c2)[C@@H](/N=C(\NC#N)Nc2ccc(Cl)cc2)[C@H](O)C(C)(C)O3)C1 (stereo not given in full) 2.36

If you can, please state the reported log10(EC25) value of CC1(C)Oc2ccc(Cc3ccccc3)cc2[C@@H](/N=C(\NC#N)Nc2ccc(Cl)cc2)[C@@H]1O . 4.05

May I ask what log10(EC25) has been recorded for CC1(C)Oc2ccc(C#N)cc2[C@H](N(Cc2ncc[nH]2)c2ccc(Cl)cc2)[C@H]1O ? 3.15
